Each entry below carries its reported T/C.
# System: L1210 leukemia ip in BDF1 mice, survival T/C
# test_name: NCI In Vivo Anticancer Drug Screen. Data for tumor model L1210 Leukemia (intraperitoneal) in B6D2F1 (BDF1) mice
# assay_conditions: endpoint: mean survival time; dose: 50.0 mg/kg/injection; schedule: Q04DX003 (ip); vehicle: saline with Tween-80; higher = longer survival
Toxic doses and inconclusive results are not listed.

Known T/C results, listed for orientation:
compound | T/C
NC(=O)CN1C(=O)C2C3CCC(O3)C2C1=O (centres undefined) | 89 % of control
COC(=O)c1ccc(CBr)cc1 | 97 % of control
Fc1ccc(/C=N\N=C(N/N=C/c2ccc(F)cc2)N/N=C/c2ccc(F)cc2)cc1 | 104 % of control

Next, consider the following compound.
Request: Specify the recorded T/C for CSc1ccc(NC(=O)CCl)cc1 , system: L1210 leukemia ip in BDF1 mice, survival T/C.
Result: 95 % of control

----------
# Tested on: L1210 leukemia ip in BDF1 mice, survival T/C
# test_name: NCI In Vivo Anticancer Drug Screen. Data for tumor model L1210 Leukemia (intraperitoneal) in B6D2F1 (BDF1) mice
# assay_conditions: endpoint: mean survival time; dose: 400.0 mg/kg/injection; schedule: Q01DX001 (ip); vehicle: saline; higher = longer survival
Toxic doses and inconclusive results are not listed.
Each entry below carries its reported T/C.

compound | system_tested | measured_value
CCOC(O)C(F)(F)F (stereo not given) | L1210 leukemia ip in BDF1 mice, survival T/C | 102 % of control

Request: Specify the recorded T/C for COc1ccc(-c2sc(C)c(-c3ccc(OC)cc3)c2C)cc1 , system: L1210 leukemia ip in BDF1 mice, survival T/C.
Result: 94 % of control

Request: Specify the recorded T/C for Cc1cn(C2OC(C(O)C(N)=O)C(O)C2O)c(=O)[nH]c1=O (stereo not given) , system: L1210 leukemia ip in BDF1 mice, survival T/C.
Result: 101 % of control

Request: Specify the recorded T/C for ON=C1CCSCC1 , system: L1210 leukemia ip in BDF1 mice, survival T/C.
Result: 108 % of control

Request: Specify the recorded T/C for O=[N+]([O-])c1cc(/C=N/N2CCN(/N=C/c3ccc(Cl)c([N+](=O)[O-])c3)CC2)ccc1Cl , system: L1210 leukemia ip in BDF1 mice, survival T/C.
Result: 90 % of control

Request: Specify the recorded T/C for N#CCC(O)(c1ccccc1)c1ccccc1 , system: L1210 leukemia ip in BDF1 mice, survival T/C.
Result: 104 % of control

Request: Specify the recorded T/C for CCOC(=O)c1ccccc1NC(OCC)C(=O)c1ccccc1 (stereo not given) (tested in a mixture with another compound) , system: L1210 leukemia ip in BDF1 mice, survival T/C.
Result: 103 % of control

Request: Specify the recorded T/C for O=C(N/N=C/c1ccc2c(c1)OCO2)c1cccc2ccccc12 , system: L1210 leukemia ip in BDF1 mice, survival T/C.
Result: 97 % of control

Request: Specify the recorded T/C for CCS(=O)(=O)C(CCC(S(=O)(=O)CC)S(=O)(=O)CC)S(=O)(=O)CC , system: L1210 leukemia ip in BDF1 mice, survival T/C.
Result: 102 % of control

Request: Specify the recorded T/C for CC(=O)OCC1OC(SSC2OC(COC(C)=O)C(OC(C)=O)C(OC(C)=O)C2OC(C)=O)C(OC(C)=O)C(OC(C)=O)C1OC(C)=O (stereo not given) , system: L1210 leukemia ip in BDF1 mice, survival T/C.
Result: 89 % of control

----------
# Test system: L1210 leukemia ip in BDF1 mice, survival T/C
# test_name: NCI In Vivo Anticancer Drug Screen. Data for tumor model L1210 Leukemia (intraperitoneal) in B6D2F1 (BDF1) mice
# assay_conditions: endpoint: mean survival time; dose: 25.0 mg/kg/injection; schedule: Q01DX009 (ip); vehicle: Klucel (hydroxypropylcellulose) (HPC); higher = longer survival
Inconclusive results and toxic doses are left out.
observation_type: T/C

compound | system_tested | measured_value
CC(C)(C)C1Sc2nc3ccccc3n2C1=O (stereo unspecified) | L1210 leukemia ip in BDF1 mice, survival T/C | 97 % of control
CC(=O)OC1CC2c3ccccc3C1c1cccc[n+]12 (stereo unspecified) | L1210 leukemia ip in BDF1 mice, survival T/C | 102 % of control

Request: Supply reported T/C belonging to this compound: O=C1NC(=O)C2(CCCCC2)N1
Result: 96 % of control

Request: Supply reported T/C belonging to this compound: CC12CCC(C(=N/O)/C1=N\O)C2(C)C (stereo unspecified)
Result: 107 % of control

Request: Supply reported T/C belonging to this compound: CCCCCCCCCCCCCCCCCC(=O)NCC#CCN1CCCC1
Result: 96 % of control

Request: Supply reported T/C belonging to this compound: CC(C)=CCN1CCC2(C)c3cc(O)ccc3CC1C2C (stereo unspecified)
Result: 110 % of control

Request: Supply reported T/C belonging to this compound: Cc1cc(C)c(NC(=O)c2c(Cl)c(Cl)c(Cl)c(Cl)c2C(=O)O)c(C)c1
Result: 102 % of control

Request: Supply reported T/C belonging to this compound: NS(=O)(=O)c1ccc(N=Nc2ncc(CCNC3=CC(=O)C(=O)c4ccccc43)[nH]2)cc1
Result: 96 % of control

Request: Supply reported T/C belonging to this compound: O=C(CCCN1CCC(O)(c2cccc(C(F)(F)F)c2)CC1)c1ccc(F)cc1
Result: 91 % of control

Request: Supply reported T/C belonging to this compound: O=C1NC(C2CC3C=CC2C3)Nc2ccccc21 (stereo unspecified)
Result: 101 % of control

Request: Supply reported T/C belonging to this compound: Cc1cc(N(CCOS(C)(=O)=O)CCOS(C)(=O)=O)ccc1C=Nc1ccc(-c2csc(-c3ccc(Cl)cc3)n2)cc1
Result: 112 % of control

----------
# Test system: L1210 leukemia ip in BDF1 mice, survival T/C
# test_name: NCI In Vivo Anticancer Drug Screen. Data for tumor model L1210 Leukemia (intraperitoneal) in B6D2F1 (BDF1) mice
# assay_conditions: endpoint: mean survival time; dose: 100.0 mg/kg/injection; schedule: Q01DX009 (ip); vehicle: saline sonified; higher = longer survival
Inconclusive results and toxic doses are left out.
observation_type: T/C

Known T/C results, listed for orientation:
compound | measured_value
O=C(/C=C/c1ccco1)c1ccc(Cl)cc1 | 91 % of control
COc1cc2ccc(CN3CCCC3C(=O)OCc3ccccc3)cc2cc1OC (centres undefined) | 100 % of control
NC1(CO)COC(c2ccccc2)OC1 (centres undefined) | 96 % of control

Next, consider the following compound.
Request: Supply reported T/C belonging to this compound: Fc1c(Cl)c(Cl)c(Cl)c(Cl)c1Cl
Result: 110 % of control

----------
Each entry below carries its reported T/C.
# Test system: L1210 leukemia ip in BDF1 mice, survival T/C
# test_name: NCI In Vivo Anticancer Drug Screen. Data for tumor model L1210 Leukemia (intraperitoneal) in B6D2F1 (BDF1) mice
# assay_conditions: endpoint: mean survival time; dose: 75.0 mg/kg/injection; schedule: Q01DX001 (ip); vehicle: carboxymethylcellulose (CMC); higher = longer survival
Inconclusive results and toxic doses are left out.

Known T/C results, listed for orientation:
compound | T/C
COC1CCC2(C)C3CCC4C(=CCC5C(C)(C)C(=O)CCC45C)CC3(C)CCC2C1(C)C (stereo not given) | 105 % of control
Cc1c2ccccc2[n+](C)c2ccc3ccccc3c12 | 94 % of control
C=CCC1(C(=C)C)C(=O)NC(=O)NC1=O | 97 % of control

Request: Supply reported T/C belonging to this compound: O=P(CCC(F)(F)C(F)(F)C(F)(F)C(F)(F)C(F)(F)C(F)(F)C(F)(F)F)(N1CC1)N1CC1
Result: 108 % of control

Request: Supply reported T/C belonging to this compound: COc1cc(CCl)c(CCl)c(OC)c1OC
Result: 96 % of control

----------
# Test system: L1210 leukemia ip in BDF1 mice, survival T/C
# test_name: NCI In Vivo Anticancer Drug Screen. Data for tumor model L1210 Leukemia (intraperitoneal) in B6D2F1 (BDF1) mice
# assay_conditions: endpoint: mean survival time; dose: 100.0 mg/kg/injection; schedule: Q01DX001 (ip); vehicle: other; higher = longer survival
Toxic doses and inconclusive results are not listed.
observation_type: T/C

Known T/C results, listed for orientation:
compound | T/C
Cc1cccc2cccnc12 | 104 % of control
CC(=O)Oc1cc(-c2ccc3c(c2)C2(C)c4cc(OC(C)=O)c5ccccc5c4OC2(C)N3C)c(OC(C)=O)c2ccccc12 (stereo not drawn) | 92 % of control

Next, consider the following compound.
Request: Specify the recorded T/C for O=[N+]([O-])/C=C/c1ccc2ccccc2c1 , system: L1210 leukemia ip in BDF1 mice, survival T/C.
Result: 100 % of control

All values here come from PubChem BioAssay AID248.
